# EXPERIMENTAL_TARGET: Somatostatin receptor 1 (SSTR1) (human), P30872
# Sequence (P30872 whole entry): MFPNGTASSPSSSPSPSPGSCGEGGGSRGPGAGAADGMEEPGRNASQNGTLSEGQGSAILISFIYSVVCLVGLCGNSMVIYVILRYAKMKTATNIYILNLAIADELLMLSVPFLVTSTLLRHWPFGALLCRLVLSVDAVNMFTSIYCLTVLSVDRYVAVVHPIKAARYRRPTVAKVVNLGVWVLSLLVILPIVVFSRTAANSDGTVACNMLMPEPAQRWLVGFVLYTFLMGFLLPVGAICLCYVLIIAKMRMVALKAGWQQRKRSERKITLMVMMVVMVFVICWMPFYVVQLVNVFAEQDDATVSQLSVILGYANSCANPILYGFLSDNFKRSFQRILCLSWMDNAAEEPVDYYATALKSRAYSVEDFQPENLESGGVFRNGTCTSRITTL
# CONDITION_CONTEXT: octanoyl moiety at the N-terminus (N-octanoyl amide); L-mesityl alanine (Msa) at position 5; D-Trp at position 7; disulfide bridge between the two cysteines
OBSERVED_PROPERTY: IC50 (nM)
Give the value in nM but do not write nM after it.

Using known records, supply IC50 for PCKNFFWKTFTSCK [Cortistatin analogue 5]
47.3

These measurements were taken from paper PMC7994712.
